B1: VAMP4 (parent)
chain: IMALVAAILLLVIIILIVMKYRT

# Variants of: B1
# test: protein stability index of a GFP-peptide fusion (GPS, HEK-293T) (PSI 1-6); higher = more stable;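 further: lentivirally expressed fusions sorted by FACS into six bins by GFP to DsRed ratio, PSI derived from sequencing read proportions per bin multiplied by bin number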
# measurement conditions: c terminus: native
Examples of variants with documented protein stability index follow.
value kind: protein stability index

>  <variant key>
L11Q

>  <value kind>
protein stability index

>  <readout number>
2.6

$$$$
>  <variant key>
I1L

>  <value kind>
protein stability index

>  <readout number>
3.49

$$$$
>  <variant key>
I13E

>  <value kind>
protein stability index

>  <readout number>
1.77

$$$$
>  <variant key>
R22Y

>  <value kind>
protein stability index

>  <readout number>
3.56

$$$$
>  <variant key>
I14P

>  <value kind>
protein stability index

>  <readout number>
3.1

$$$$
>  <variant key>
K20A

>  <value kind>
protein stability index

>  <readout number>
3.68

$$$$
>  <variant key>
I1Q

>  <value kind>
protein stability index

>  <readout number>
3.45

$$$$
>  <variant key>
M19R

>  <value kind>
protein stability index

>  <readout number>
2.91

$$$$
>  <variant key>
V12F

>  <value kind>
protein stability index

>  <readout number>
3.47

$$$$
>  <variant key>
I15P

>  <value kind>
protein stability index

>  <readout number>
3.92

$$$$
>  <variant key>
I8A

>  <value kind>
protein stability index

>  <readout number>
3.34

$$$$
>  <variant key>
I13S

>  <value kind>
protein stability index

>  <readout number>
3.36

$$$$
>  <variant key>
I1V

>  <value kind>
protein stability index

>  <readout number>
3.38

$$$$
>  <variant key>
T23A

>  <value kind>
protein stability index

>  <readout number>
3.69

$$$$
>  <variant key>
R22Q

>  <value kind>
protein stability index

>  <readout number>
3.39

$$$$
>  <variant key>
V5N

>  <value kind>
protein stability index

>  <readout number>
1.84

$$$$
>  <variant key>
A3M

>  <value kind>
protein stability index

>  <readout number>
3.72

$$$$
>  <variant key>
I13T

>  <value kind>
protein stability index

>  <readout number>
3.82

$$$$
>  <variant key>
A6E

>  <value kind>
protein stability index

>  <readout number>
2.3

$$$$
>  <variant key>
L16P

>  <value kind>
protein stability index

>  <readout number>
3.2

$$$$
>  <variant key>
I13Y

>  <value kind>
protein stability index

>  <readout number>
3.22

$$$$
>  <variant key>
Y21M

>  <value kind>
protein stability index

>  <readout number>
3.42

$$$$
>  <variant key>
I15L

>  <value kind>
protein stability index

>  <readout number>
3.26

$$$$
>  <variant key>
R22K

>  <value kind>
protein stability index

>  <readout number>
3.58

$$$$
>  <variant key>
L4G

>  <value kind>
protein stability index

>  <readout number>
3.32

$$$$
>  <variant key>
Y21F

>  <value kind>
protein stability index

>  <readout number>
3.56

$$$$
>  <variant key>
L16D

>  <value kind>
protein stability index

>  <readout number>
2.44

$$$$
>  <variant key>
I17N

>  <value kind>
protein stability index

>  <readout number>
2.79

$$$$
>  <variant key>
Y21V

>  <value kind>
protein stability index

>  <readout number>
2.96

$$$$
>  <variant key>
M19T

>  <value kind>
protein stability index

>  <readout number>
2.72

$$$$
>  <variant key>
L4Y

>  <value kind>
protein stability index

>  <readout number>
2.76

$$$$
>  <variant key>
I15Y

>  <value kind>
protein stability index

>  <readout number>
2.26

$$$$
>  <variant key>
L16V

>  <value kind>
protein stability index

>  <readout number>
3.35

$$$$
>  <variant key>
A3V

>  <value kind>
protein stability index

>  <readout number>
3.59

$$$$
>  <variant key>
L9C

>  <value kind>
protein stability index

>  <readout number>
3.33

$$$$
>  <variant key>
T23S

>  <value kind>
protein stability index

>  <readout number>
3.11

$$$$
>  <variant key>
L16Y

>  <value kind>
protein stability index

>  <readout number>
3.25

$$$$
>  <variant key>
I1M

>  <value kind>
protein stability index

>  <readout number>
3.56

$$$$
>  <variant key>
L11R

>  <value kind>
protein stability index

>  <readout number>
2.98

$$$$
>  <variant key>
I1S

>  <value kind>
protein stability index

>  <readout number>
3.02

$$$$
>  <variant key>
M2C

>  <value kind>
protein stability index

>  <readout number>
3.25

$$$$
>  <variant key>
A6D

>  <value kind>
protein stability index

>  <readout number>
2.8

$$$$
>  <variant key>
T23G

>  <value kind>
protein stability index

>  <readout number>
3.81

$$$$
>  <variant key>
I8P

>  <value kind>
protein stability index

>  <readout number>
2.85

$$$$
>  <variant key>
I15R

>  <value kind>
protein stability index

>  <readout number>
1.9

$$$$
>  <variant key>
M2V

>  <value kind>
protein stability index

>  <readout number>
2.72

$$$$
>  <variant key>
I8R

>  <value kind>
protein stability index

>  <readout number>
2.72

$$$$
>  <variant key>
R22P

>  <value kind>
protein stability index

>  <readout number>
3.06

$$$$
>  <variant key>
A3W

>  <value kind>
protein stability index

>  <readout number>
3.47

$$$$
>  <variant key>
M19Q

>  <value kind>
protein stability index

>  <readout number>
2.51

$$$$
>  <variant key>
L9N

>  <value kind>
protein stability index

>  <readout number>
2.4

$$$$
>  <variant key>
A3H

>  <value kind>
protein stability index

>  <readout number>
2.85

$$$$
>  <variant key>
Y21I

>  <value kind>
protein stability index

>  <readout number>
3.26

$$$$
>  <variant key>
L10R

>  <value kind>
protein stability index

>  <readout number>
3.16

$$$$
>  <variant key>
I13L

>  <value kind>
protein stability index

>  <readout number>
3.81

$$$$
>  <variant key>
R22E

>  <value kind>
protein stability index

>  <readout number>
3.24

$$$$
>  <variant key>
A7C

>  <value kind>
protein stability index

>  <readout number>
3.29

$$$$
>  <variant key>
V5W

>  <value kind>
protein stability index

>  <readout number>
3.4

$$$$
>  <variant key>
I15K

>  <value kind>
protein stability index

>  <readout number>
2.04

$$$$
>  <variant key>
I1R

>  <value kind>
protein stability index

>  <readout number>
3.06

$$$$
>  <variant key>
A3K

>  <value kind>
protein stability index

>  <readout number>
3.28

$$$$
>  <variant key>
M19P

>  <value kind>
protein stability index

>  <readout number>
2.66

$$$$
>  <variant key>
L9E

>  <value kind>
protein stability index

>  <readout number>
1.96

$$$$
>  <variant key>
Y21P

>  <value kind>
protein stability index

>  <readout number>
2.98

$$$$
>  <variant key>
K20F

>  <value kind>
protein stability index

>  <readout number>
3.67

$$$$
>  <variant key>
L4E

>  <value kind>
protein stability index

>  <readout number>
1.57

$$$$
>  <variant key>
Y21R

>  <value kind>
protein stability index

>  <readout number>
1.81

$$$$
>  <variant key>
I8K

>  <value kind>
protein stability index

>  <readout number>
2.72

$$$$
>  <variant key>
L11N

>  <value kind>
protein stability index

>  <readout number>
2.25

$$$$
>  <variant key>
A7V

>  <value kind>
protein stability index

>  <readout number>
3.45

$$$$
>  <variant key>
L16M

>  <value kind>
protein stability index

>  <readout number>
2.39

$$$$
>  <variant key>
I1N

>  <value kind>
protein stability index

>  <readout number>
2.69

$$$$
>  <variant key>
A6C

>  <value kind>
protein stability index

>  <readout number>
3.2

$$$$
>  <variant key>
I1W

>  <value kind>
protein stability index

>  <readout number>
3.51

$$$$
>  <variant key>
T23D

>  <value kind>
protein stability index

>  <readout number>
3.27

$$$$
>  <variant key>
Y21S

>  <value kind>
protein stability index

>  <readout number>
3.37

$$$$
>  <variant key>
V5Y

>  <value kind>
protein stability index

>  <readout number>
3.72

$$$$
>  <variant key>
I8N

>  <value kind>
protein stability index

>  <readout number>
2.48

$$$$
>  <variant key>
M2T

>  <value kind>
protein stability index

>  <readout number>
2.81

$$$$
>  <variant key>
V12T

>  <value kind>
protein stability index

>  <readout number>
3.16

$$$$
>  <variant key>
M19G

>  <value kind>
protein stability index

>  <readout number>
2.99

$$$$
>  <variant key>
M2Q

>  <value kind>
protein stability index

>  <readout number>
2.96

$$$$
>  <variant key>
I15N

>  <value kind>
protein stability index

>  <readout number>
1.95

$$$$
>  <variant key>
Y21E

>  <value kind>
protein stability index

>  <readout number>
2.71

$$$$
>  <variant key>
L11V

>  <value kind>
protein stability index

>  <readout number>
3.46

$$$$
>  <variant key>
L11D

>  <value kind>
protein stability index

>  <readout number>
2.28

$$$$
>  <variant key>
K20T

>  <value kind>
protein stability index

>  <readout number>
3.59

$$$$
>  <variant key>
M2W

>  <value kind>
protein stability index

>  <readout number>
3.66

$$$$
>  <variant key>
A7W

>  <value kind>
protein stability index

>  <readout number>
3.03

$$$$
>  <variant key>
I17F

>  <value kind>
protein stability index

>  <readout number>
2.58

$$$$
>  <variant key>
I14H

>  <value kind>
protein stability index

>  <readout number>
1.92

$$$$
